system: IL-6 (THP-1 cells); assay: IL-6 inhibition in LPS-stimulated THP-1 cells (HTRF); format: cell-based; conditions: Homo sapiens; at 10 μM, given where EC50 >10 μM; IL-6, THP-1 cells, LPS; read-out: percent inhibition at 10 μM
METRIC_NAME: inhibition at 10 µM (%)
Express the result in % but write the number alone.

Query: Return reported inhibition at 10 µM; argument: CC(C)C(=O)Nc1cncc(-c2cc3c(-c4cc5c(-c6ccc(F)cc6)ccnc5[nH]4)n[nH]c3cn2)c1 [Compound 37]
Result: 25.4

Query: Form field: reported inhibition at 10 µM of CN(C)Cc1cncc(-c2cc3c(-c4cc5c(-c6ccncc6)ccnc5[nH]4)n[nH]c3cn2)c1 [Compound 125]
Result: 34.4

Query: Tell me the measured inhibition at 10 µM of O=C(Nc1cncc(-c2cc3c(-c4cc5cccnc5[nH]4)n[nH]c3cn2)c1)C1CCCCC1 [Compound 275] , please.
Result: 24.7

----------
Assignment: determine reported inhibition at 10 µM for the given compounds.
tested on: IL-6 (THP-1 cells); assay: IL-6 inhibition in LPS-stimulated THP-1 cells (HTRF); format: cell-based; conditions: Homo sapiens; at 10 μM, given where EC50 >10 μM; IL-6, THP-1 cells, LPS; read-out: percent inhibition at 10 μM
Unit % implied. Number only.

Query: I am curious: what inhibition at 10 µM value has been reported for c1cncc(-c2ccnc3[nH]c(-c4n[nH]c5cnc(-c6cncnc6)cc45)cc23)c1 ?
Result: 37.4

Query: I am curious: what inhibition at 10 µM value has been reported for Cn1cc(-c2cc3c(-c4cc5cccnc5[nH]4)n[nH]c3cn2)cn1 ?
Result: 15.2

Query: // inhibition at 10 µM lookup, key: CN1CCN(c2ccnc3[nH]c(-c4n[nH]c5cnc(-c6cncc(N(C)C)c6)cc45)cc23)CC1
Result: 3.7

Query: Any idea what inhibition at 10 µM was measured for O=C(Cc1ccccc1)Nc1cncc(-c2cc3c(-c4cc5c(-c6ccncc6)ccnc5[nH]4)n[nH]c3cn2)c1 ?
Result: 34.8

Query: Name the recorded inhibition at 10 µM for CC(C)CC(=O)Nc1cncc(-c2cc3c(-c4cc5c(-c6ccc(F)cc6)ccnc5[nH]4)n[nH]c3cn2)c1 .
Result: 35.6

Query: Report inhibition at 10 µM for CN(C)CCNc1cc(F)cc(-c2ccnc3[nH]c(-c4n[nH]c5cnc(-c6ccncc6)cc45)cc23)c1 please.
Result: 5.9

Query: Can you look up the measured inhibition at 10 µM of Fc1cccc(-c2ccnc3[nH]c(-c4n[nH]c5cnc(-c6cncnc6)cc45)cc23)c1 for me?
Result: 43.9

Query: Need inhibition at 10 µM, item CN(C)CCNc1cc(F)cc(-c2ccnc3[nH]c(-c4n[nH]c5cnc(-c6cncnc6)cc45)cc23)c1
Result: 6.3

Query: Item under review: CN1CCN(c2ccnc3[nH]c(-c4n[nH]c5cnc(-c6cn[nH]c6)cc45)cc23)CC1 . Reported inhibition at 10 µM?
Result: 10.9

Query: Form field: reported inhibition at 10 µM of O=C(Nc1cncc(-c2cc3c(-c4cc5c(-c6cccc(F)c6)ccnc5[nH]4)n[nH]c3cn2)c1)c1ccccc1
Result: 38.9

Query: Requested field: inhibition at 10 µM. Item: Fc1cccc(-c2ccnc3[nH]c(-c4n[nH]c5cnc(-c6cccnc6)cc45)cc23)c1
Result: 21.3

Query: Would you kindly share the measured inhibition at 10 µM for Nc1cncc(-c2cc3c(-c4cc5c(-c6ccccc6F)ccnc5[nH]4)n[nH]c3cn2)c1 ?
Result: 37.3

Query: I am curious: what inhibition at 10 µM value has been reported for Nc1cncc(-c2cc3c(-c4cc5c(-c6ccoc6)ccnc5[nH]4)n[nH]c3cn2)c1 ?
Result: 36.3

Query: Which inhibition at 10 µM value is on record for CC(C)CC(=O)Nc1cncc(-c2cc3c(-c4cc5c(-c6ccncc6)ccnc5[nH]4)n[nH]c3cn2)c1 ?
Result: 13

Query: Which value of inhibition at 10 µM has been reported for CCCC(=O)Nc1cncc(-c2cc3c(-c4cc5c(-c6cc(F)cc(NCCN(C)C)c6)ccnc5[nH]4)n[nH]c3cn2)c1 in the records?
Result: 21.5
